Target: T1, human ferroportin (SLC40A1) fused in frame with GFP, stably expressed in HEK293 cells (human, UniProt Q9NP59 1-571)
T1 sequence (looked up): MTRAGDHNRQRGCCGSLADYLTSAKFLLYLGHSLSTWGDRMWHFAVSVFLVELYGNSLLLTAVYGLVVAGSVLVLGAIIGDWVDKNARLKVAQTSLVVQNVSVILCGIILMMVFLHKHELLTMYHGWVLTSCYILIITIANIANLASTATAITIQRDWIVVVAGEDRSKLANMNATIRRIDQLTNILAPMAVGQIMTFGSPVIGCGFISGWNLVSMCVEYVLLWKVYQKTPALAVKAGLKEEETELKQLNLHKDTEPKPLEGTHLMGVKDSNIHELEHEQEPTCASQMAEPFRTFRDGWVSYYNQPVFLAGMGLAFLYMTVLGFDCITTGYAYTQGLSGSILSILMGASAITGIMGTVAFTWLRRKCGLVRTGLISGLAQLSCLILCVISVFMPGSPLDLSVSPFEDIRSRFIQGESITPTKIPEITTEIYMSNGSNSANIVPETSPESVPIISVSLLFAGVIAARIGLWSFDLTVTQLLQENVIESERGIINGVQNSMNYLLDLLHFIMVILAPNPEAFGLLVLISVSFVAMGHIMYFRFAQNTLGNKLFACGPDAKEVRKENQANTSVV
Experiment: cell-based or functional assay
Numbered stars: 1 amine (or outer) side, 2 acyl side, 3 side chain; on linkers, the order of the positions; unused ones are H or OH. Bridge positions count the residues as written; N and C are the ends. Square brackets hold non-standard residues; d marks the D form. Ends that are not written are not given here. * marks the point of attachment. Ida = iminodiacetic acid, O=C(CN(CC(=O)[*:3])[*:1])[*:2]; Dip = N[C@H](C(=O)O)C(c1ccccc1)c1ccccc1; Palmitoyl = CCCCCCCCCCCCCCCC(=O)*; β3hP = O=C(O)C[C@@H]1CCCN1; Isovaleryl = CC(C)CC(=O)*
MEASUREMENT_KIND: Potency EC50 (nM)

Return Potency EC50 for the following binder: [Ida]TH[Dip][β3hP]ICIFGPRSKGWVCM-NH2 (disulfide 7-18 (inferred)) [[Ida]-TH-[Dpa]-[bhPro]-ICIFGPRSKGWVCM-NH2]
17

Please supply the value of reported Potency EC50 for the item DTHFPCIKFKPRSKGWVCK (N-terminal isovaleric acid; Palm on the side chain of Lys 10; C-terminal amide) [Isovaleric acid-DTHFPCIKF-K(Palm)-PRSKGWVCK-NH2]
9

I = Isovaleryl-DTHFPCIKFGPK(Palmitoyl)SKGWVCK-NH2 (not fully specified (bridges); cysteine pairing not given here) [Isovaleric acid-DTHFPCIKFGP-K(Palm)-SKGWVCK-NH2]
II = Isovaleryl-DTHFPCIKFGPRSK(Palmitoyl)GWVCK-NH2 (disulfide 6-18 (inferred)) [Isovaleric acid-DTHFPCIKFGPRS-K(Palm)-GWVCK-NH2]
Which has the higher Potency EC50, I or II ? # reply format: chosen label
I
(I: 2 nM, II: 1 nM)
